System: TGBC24TKB (Biliary Tract Carcinoma)
Assay: combination Emax (second highest fraction inhibited in the dose matrix, 72 h); higher = more inhibition; extreme values may be limits of the assay
Values of combination Emax greater than or equal to 0.2 map to 1; values below map to -1.

Past entries and their recorded results:
C[C@@H]1COCCN1c1cc(C2([S@](C)(=N)=O)CC2)nc(-c2ccnc3[nH]ccc23)n1 [AZD6738] + O=C(c1cc(Cc2n[nH]c(=O)c3ccccc23)ccc1F)N1CCN(C(=O)C2CC2)CC1 [Olaparib] (first compound max 10 µM, 7x7, partner max 10 µM); 1
Cn1cnc2c(F)c(Nc3ccc(Br)cc3Cl)c(C(=O)NOCCO)cc21 [Selumetinib] + C=CCn1c(=O)c2cnc(Nc3ccc(N4CCN(C)CC4)cc3)nc2n1-c1cccc(C(C)(C)O)n1 [AZD1775] (first compound max 10 µM, partner max 1 µM); 1
CC1(C)CCC(CN2CCN(c3ccc(C(=O)NS(=O)(=O)c4ccc(NCC5CCOCC5)c([N+](=O)[O-])c4)c(Oc4cnc5[nH]ccc5c4)c3)CC2)=C(c2ccc(Cl)cc2)C1 [Venetoclax] + C[C@@H](Nc1cc(F)cc(F)c1)c1cc(C(=O)N(C)C)cc2c(=O)cc(N3CCOCC3)oc12 [AZD8186] (first compound max 1 µM, 7x7, partner max 3 µM); -1
CC1(C)CCC(CN2CCN(c3ccc(C(=O)NS(=O)(=O)c4ccc(NCC5CCOCC5)c([N+](=O)[O-])c4)c(Oc4cnc5[nH]ccc5c4)c3)CC2)=C(c2ccc(Cl)cc2)C1 [Venetoclax] + C1CN(CCC1(C(=O)N[C@@H](CCO)C2=CC=C(C=C2)Cl)N)C3=NC=NC4=C3C=CN4 [Capivasertib] (first compound max 1 µM, 7x7, partner max 3 µM); 1
Cc1c2c(nn1C)CSCc1cc(n(C)n1)CSc1cc(c3ccccc3c1)OCCCc1c(C(=O)O)n(C)c3c-2c(Cl)ccc13 [AZD5991] + CC1(C)CCC(CN2CCN(c3ccc(C(=O)NS(=O)(=O)c4ccc(NCC5CCOCC5)c([N+](=O)[O-])c4)c(Oc4cnc5[nH]ccc5c4)c3)CC2)=C(c2ccc(Cl)cc2)C1 [Venetoclax] (first compound max 1 µM, 7x7, partner max 1 µM); 1

Q: Check if combination Emax >= 0.2 (inclusive). Item: Cc1c2c(nn1C)CSCc1cc(n(C)n1)CSc1cc(c3ccccc3c1)OCCCc1c(C(=O)O)n(C)c3c-2c(Cl)ccc13 [AZD5991] + CN(C)CCCOc1ccc(-c2ccc3ncc4c(c3c2)n(C2CCOCC2)c(=O)n4C)cn1 [AZD0156] (first compound max 1 µM, 7x7, partner max 1 µM)
A: -1

----------
Tested on: SN12C (Kidney Carcinoma);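 note: after 72 h of two-drug dosing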
Assay: Bliss excess, mean over the matrix (fraction); higher = more synergy
Below is a list of entries, each paired with its recorded Bliss excess value.

C=CCn1c(=O)c2cnc(Nc3ccc(N4CCN(C)CC4)cc3)nc2n1-c1cccc(C(C)(C)O)n1 [AZD1775] + Nc1ccn([C@@H]2O[C@H](CO)[C@@H](O)C2(F)F)c(=O)n1 [Gemcitabine] (first compound max 1 µM, partner max 0.3 µM); 0.0719

Note to self: Bliss excess of C[C@@H]1COCCN1c1cc(C2([S@](C)(=N)=O)CC2)nc(-c2ccnc3[nH]ccc23)n1 [AZD6738] + Nc1ccn([C@@H]2O[C@H](CO)[C@@H](O)C2(F)F)c(=O)n1 [Gemcitabine] (first compound max 10 µM, 7x7, partner max 0.3 µM) with SN12C (Kidney Carcinoma) was 0.0577

Observed Bliss excess, SN12C (Kidney Carcinoma), Cc1cc2ncnn2cc1Nc1ncc2c(n1)n(C1CCOCC1)c(=O)n2C [AZD7648] + COc1cc([C@@H]2c3cc4c(cc3[C@@H](O[C@@H]3O[C@@H]5CO[C@@H](C)O[C@H]5[C@H](O)[C@H]3O)[C@H]3COC(=O)[C@H]23)OCO4)cc(OC)c1O [Etoposide] (first compound max 10 µM, 7x7, partner max 10 µM) : 0.0424

The recorded Bliss excess with SN12C (Kidney Carcinoma) for CCN(CCO)CCCOc1ccc2c(Nc3cc(CC(=O)Nc4cccc(F)c4)[nH]n3)ncnc2c1 [AZD2811] + O=C(c1cc(Cc2n[nH]c(=O)c3ccccc23)ccc1F)N1CCN(C(=O)C2CC2)CC1 [Olaparib] (first compound max 1 µM, 7x7, partner max 10 µM) was 0.0151

----------
System: IHH-4 (Thyroid Gland Carcinoma)
Assay: combination Emax (second highest fraction inhibited in the dose matrix, 72 h); higher = more inhibition; extreme values may be limits of the assay
Label rule, in plain words: combination Emax of 0.7 and up is MET, under 0.7 is NOT MET.

Past entries and their recorded results:
Cc1cc2ncnn2cc1Nc1ncc2c(n1)n(C1CCOCC1)c(=O)n2C [AZD7648] + COc1cc([C@@H]2c3cc4c(cc3[C@@H](O[C@@H]3O[C@@H]5CO[C@@H](C)O[C@H]5[C@H](O)[C@H]3O)[C@H]3COC(=O)[C@H]23)OCO4)cc(OC)c1O [Etoposide] (first compound max 10 µM, 7x7, partner max 10 µM); MET
C[C@@H](Nc1cc(F)cc(F)c1)c1cc(C(=O)N(C)C)cc2c(=O)cc(N3CCOCC3)oc12 [AZD8186] + C1CN(CCC1(C(=O)N[C@@H](CCO)C2=CC=C(C=C2)Cl)N)C3=NC=NC4=C3C=CN4 [AZD5363] (first compound max 10 µM, 7x7, partner max 10 µM); NOT MET
C[C@@H]1COCCN1c1cc(C2([S@](C)(=N)=O)CC2)nc(-c2ccnc3[nH]ccc23)n1 [AZD6738] + Nc1ccn([C@@H]2O[C@H](CO)[C@@H](O)C2(F)F)c(=O)n1 [Gemcitabine] (first compound max 10 µM, 7x7, partner max 0.3 µM); MET
Cc1c2c(nn1C)CSCc1cc(n(C)n1)CSc1cc(c3ccccc3c1)OCCCc1c(C(=O)O)n(C)c3c-2c(Cl)ccc13 [AZD5991] + CC(=O)O[C@H]1C(=O)[C@@]2(C)[C@H]([C@H](OC(=O)c3ccccc3)[C@]3(O)C[C@H](OC(=O)[C@H](O)[C@@H](NC(=O)c4ccccc4)c4ccccc4)C(C)=C1C3(C)C)[C@]1(OC(C)=O)CO[C@@H]1C[C@@H]2O [Paclitaxel] (first compound max 1 µM, 7x7, partner max 3 µM); MET
CC1(C)CCC(CN2CCN(c3ccc(C(=O)NS(=O)(=O)c4ccc(NCC5CCOCC5)c([N+](=O)[O-])c4)c(Oc4cnc5[nH]ccc5c4)c3)CC2)=C(c2ccc(Cl)cc2)C1 [Venetoclax] + Cn1cnc2c(F)c(Nc3ccc(Br)cc3Cl)c(C(=O)NOCCO)cc21 [Selumetinib] (first compound max 1 µM, 7x7, partner max 3 µM); NOT MET

Q: combination Emax >= 0.7 for C=CCn1c(=O)c2cnc(Nc3ccc(N4CCN(C)CC4)cc3)nc2n1-c1cccc(C(C)(C)O)n1 [AZD1775] + CCc1c2c(nc3ccc(O)cc13)-c1cc3c(c(=O)n1C2)COC(=O)[C@]3(O)CC [SN-38] (first compound max 1 µM, partner max 0.3 µM) ?
A: MET

Q: Hi team, for Cc1c2c(nn1C)CSCc1cc(n(C)n1)CSc1cc(c3ccccc3c1)OCCCc1c(C(=O)O)n(C)c3c-2c(Cl)ccc13 [AZD5991] + CC1(C)CCC(CN2CCN(c3ccc(C(=O)NS(=O)(=O)c4ccc(NCC5CCOCC5)c([N+](=O)[O-])c4)c(Oc4cnc5[nH]ccc5c4)c3)CC2)=C(c2ccc(Cl)cc2)C1 [Venetoclax] (first compound max 1 µM, 7x7, partner max 1 µM) , is the recorded combination Emax at or above 0.7?
A: NOT MET

----------
Test system: KARPAS-620 (Plasma Cell Myeloma)
Experiment: combination Emax (second highest fraction inhibited in the dose matrix, 72 h); higher = more inhibition; extreme values may be limits of the assay
reportedMetric: combination Emax
Answer with the value's number alone.

C[C@@H]1COCCN1c1cc(C2([S@](C)(=N)=O)CC2)nc(-c2ccnc3[nH]ccc23)n1 [AZD6738] + Nc1ccn([C@@H]2O[C@H](CO)[C@@H](O)C2(F)F)c(=O)n1 [Gemcitabine] (first compound max 10 µM, 7x7, partner max 0.3 µM); 0.763
NC1(C(=O)N[C@@H](CCO)c2ccc(Cl)cc2)CCN(c2ncnc3[nH]ccc23)CC1 [Capivasertib] + CC(C)n1c(=O)n(C)c2cnc3cc(F)c(-c4ccc(OCCCN5CCCCC5)nc4)cc3c21 [AZD1390] (first compound max 10 µM, 7x7, partner max 0.3 µM); 0.775
C[C@@H](Oc1cc(-c2cnn(C3CCNCC3)c2)cnc1N)c1c(Cl)ccc(F)c1Cl [Crizotinib] + CC1=C(C(=CC=C1)Cl)NC(=O)C2=CN=C(S2)NC3=CC(=NC(=N3)C)N4CCN(CC4)CCO [Dasatinib] (first compound max 10 µM, 7x7, partner max 2 µM); 0.835

Below: the item to evaluate.
combination Emax recorded for this compound, NC1(C(=O)N[C@@H](CCO)c2ccc(Cl)cc2)CCN(c2ncnc3[nH]ccc23)CC1 [Capivasertib] + CC(=O)c1c(C)c2cnc(Nc3ccc(N4CCNCC4)cn3)nc2n(C2CCCC2)c1=O [Palbociclib] (first compound max 10 µM, 7x7, partner max 10 µM) , is 0.781
